S6K1 (Homo sapiens (Human), UniProt P23443) measurements of pIC50, listed per entry.
Sequence (P23443 whole entry): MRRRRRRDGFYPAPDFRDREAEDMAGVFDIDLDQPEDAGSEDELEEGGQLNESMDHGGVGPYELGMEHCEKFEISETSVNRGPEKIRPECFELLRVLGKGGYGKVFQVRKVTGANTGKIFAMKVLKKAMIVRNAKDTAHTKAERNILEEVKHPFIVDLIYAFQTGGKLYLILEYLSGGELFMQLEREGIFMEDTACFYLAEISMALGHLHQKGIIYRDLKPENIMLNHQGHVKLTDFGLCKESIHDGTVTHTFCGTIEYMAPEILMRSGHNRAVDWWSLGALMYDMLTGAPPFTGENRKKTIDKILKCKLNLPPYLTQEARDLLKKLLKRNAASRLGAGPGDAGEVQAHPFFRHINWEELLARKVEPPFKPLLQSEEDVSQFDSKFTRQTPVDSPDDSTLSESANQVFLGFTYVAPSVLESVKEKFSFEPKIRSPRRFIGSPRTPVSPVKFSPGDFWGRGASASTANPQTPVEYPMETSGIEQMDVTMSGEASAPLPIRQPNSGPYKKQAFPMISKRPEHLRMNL
pIC50: −log10 of the molar value.
testReadout: pIC50

>>> print(df.to_string())
                                    molecule  measvalue
 0  CC1C(=O)Nc2ncnc(N3CCC(c4nc(-c5cc(C(F)(F)F)nn5C)ccc4NCCN4CCCC4)CC3)c21 (stereo not drawn) [Compound 20]       9.22
 1  CC(C)(C)NCCNc1ccc(-c2nnc(C(F)F)s2)nc1C1CCN(c2ncnc3c2C(C)(C)C(=O)N3)CC1 [Compound 37]       9.52
 2  CC1(C)C(=O)Nc2ncnc(N3CCC(c4nc(-c5nc(C(F)(F)F)no5)ccc4NCCN4CCCC4)CC3)c21 [Compound 44]       9.40
 3  CCNCCNc1ccc(-c2cncc(F)c2)nc1C1CCN(c2ncnc3c2C(C)(C)C(=O)N3)CC1 [Compound 12]       9.52
 4  COc1cncc(-c2ccc(NCCN3CCCC3)c(C3CCN(c4ncnc5c4C(C)(C)C(=O)N5)CC3)n2)c1 [Compound 7]       9.52
 5  CC1C(=O)Nc2ncnc(N3CCC(c4nc(-c5ccnc(F)c5)ccc4NCCN4CCCC4)CC3)c21 (stereo not drawn) [Compound 13]       9.40
 6  Cc1cc(-c2ccc(NCCN3CCCC3)c(C3CCN(c4ncnc5c4C(C)(C)C(=O)N5)CC3)n2)n(C)n1 [Compound 3]       9.40
 7  CN(CCNc1ccc(-c2nnc(C(F)(F)F)o2)nc1C1CCN(c2ncnc3c2C(C)(C)C(=O)N3)CC1)C(C)(C)C [Compound 34]       9.40
 8  CC(C)(C)NCCNc1ccc(-c2nnc(C3CC3)s2)nc1C1CCN(c2ncnc3c2C(C)(C)C(=O)N3)CC1 [Compound 40]       9.52
 9  CC1C(=O)Nc2ncnc(N3CC=C(c4nc(-c5cncc(F)c5)ccc4NCCN4CCCC4)CC3)c21 (stereo not drawn) [Compound 26]       9.22
10  Cc1nc(C)c(-c2ccc(NCCNC(C)C)c(C3CCN(c4ncnc5c4C(C)(C)C(=O)N5)CC3)n2)s1 [Compound 6]       9.40
11  CN(C)CCNc1ccc(-c2cc(Cl)nn2C)nc1C1CCN(c2ncnc3c2C(C)(C)C(=O)N3)CC1 [Compound 9]       9.52
12  CC1C(=O)Nc2ncnc(N3CCC(c4nc(-c5ccsc5)ccc4NCCN4CCCC4)CC3)c21 (stereo not drawn) [Compound 18]       9.10
13  CC(C)NCCNc1ccc(-c2nnc(C(F)F)o2)nc1C1CCN(c2ncnc3c2C(C)(C)C(=O)N3)CC1 [Compound 31]       9.22
14  CC1C(=O)Nc2ncnc(N3CCC(c4nc(-c5ccsc5)ccc4NCCN(C)C)CC3)c21 (stereo not drawn) [Compound 23]       9.40
15  CC1C(=O)Nc2ncnc(N3CCC(c4nc(-c5nccs5)ccc4NCCN4CCCC4)CC3)c21 (stereo not drawn) [Compound 24]       9.22
16  CN(C)CCNc1ccc(-c2nnc(C(F)F)s2)nc1C1CCN(c2ncnc3c2C(C)(C)C(=O)N3)CC1 [Compound 38]       9.52
17  Cc1nnc(-c2ccc(NCCN3CCCC3)c(C3CCN(c4ncnc5c4C(C)(C)C(=O)N5)CC3)n2)s1 [Compound 36]       9.40
18  CC1C(=O)Nc2ncnc(N3CCN(c4nc(-c5cncc(F)c5)ccc4NCCN(C)C)CC3)c21 (stereo not drawn) [Compound 29]       9.10
19  CC(C)(C)NCCNc1ccc(-c2cncc(F)c2)nc1C1CCN(c2ncnc3c2C(C)(C)C(=O)N3)CC1 [Compound 1]       9.40
20  CC(C)NCCNc1cc(F)c(-c2cncc(F)c2)nc1C1CCN(c2ncnc3c2C(C)(C)C(=O)N3)CC1 [Compound 28]       9.52
21  CC(C)NCCNc1ccc(-c2noc(C(F)(F)F)n2)nc1C1CCN(c2ncnc3c2C(C)(C)C(=O)N3)CC1 [Compound 42]       9.30
22  CC(C)NCCNc1ccc(-c2nnc(C(F)(F)F)o2)nc1C1CCN(c2ncnc3c2C(C)(C)C(=O)N3)CC1 [Compound 33]       9.30
23  CC(C)NCCNc1ccc(-c2cc(Cl)nn2C)nc1C1CCN(c2ncnc3c2C(C)(C)C(=O)N3)CC1 [Compound 11]       9.52

---

Catalogue of pIC50 values
target: human Akt1 (Homo sapiens (Human), UniProt P31749)
Sequence (P31749 whole entry): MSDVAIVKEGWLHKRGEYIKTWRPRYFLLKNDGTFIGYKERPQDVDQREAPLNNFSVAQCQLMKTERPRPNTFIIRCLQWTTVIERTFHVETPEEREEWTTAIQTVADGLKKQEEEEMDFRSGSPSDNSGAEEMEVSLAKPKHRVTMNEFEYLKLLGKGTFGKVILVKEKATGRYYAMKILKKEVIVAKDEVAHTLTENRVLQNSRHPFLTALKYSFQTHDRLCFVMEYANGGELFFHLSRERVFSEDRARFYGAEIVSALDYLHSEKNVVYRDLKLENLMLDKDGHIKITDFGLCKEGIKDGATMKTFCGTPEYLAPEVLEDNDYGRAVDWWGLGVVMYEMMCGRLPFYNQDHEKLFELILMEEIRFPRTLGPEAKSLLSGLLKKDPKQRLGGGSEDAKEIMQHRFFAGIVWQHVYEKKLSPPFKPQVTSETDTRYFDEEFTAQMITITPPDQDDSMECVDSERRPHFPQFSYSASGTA
pIC50: −log10 of the molar value.
testReadout: pIC50

In [3]: df
Out[3]:
                                    compound  measvalue
 0  CC(C)NCCNc1ccc(-c2nnc(C(F)(F)F)o2)nc1C1CCN(c2ncnc3c2C(C)(C)C(=O)N3)CC1 [Compound 33]       8.60
 1  CN(CCNc1ccc(-c2nnc(C(F)(F)F)o2)nc1C1CCN(c2ncnc3c2C(C)(C)C(=O)N3)CC1)C(C)(C)C [Compound 34]       9.00
 2  CC1C(=O)Nc2ncnc(N3CCC(c4nc(-c5ccsc5)ccc4NCCN4CCCC4)CC3)c21 (centres unmarked) [Compound 18]       9.30
 3  Cc1ncccc1-c1ccc(NCCN2CCCC2)c(C2CCN(c3ncnc4c3C(C)C(=O)N4)CC2)n1 (centres unmarked) [Compound 22]       8.74
 4  CC(C)(C)NCCNc1ccc(-c2nc(C(F)(F)F)no2)nc1C1CCN(c2ncnc3c2C(C)(C)C(=O)N3)CC1 [Compound 43]       9.00
 5  CC(C)NCCNc1ccc(-c2cc(Cl)nn2C)nc1C1CCN(c2ncnc3c2C(C)(C)C(=O)N3)CC1 [Compound 11]       8.24
 6  CC(C)NCCNc1ccc(-c2noc(C(F)(F)F)n2)nc1C1CCN(c2ncnc3c2C(C)(C)C(=O)N3)CC1 [Compound 42]       8.32
 7  CC1C(=O)Nc2ncnc(N3CCC(c4nc(-c5ccsc5)ccc4NCCN(C)C)CC3)c21 (centres unmarked) [Compound 23]       9.15
 8  CC(C)(C)NCCNc1ccc(-c2nnc(C3CC3)s2)nc1C1CCN(c2ncnc3c2C(C)(C)C(=O)N3)CC1 [Compound 40]       8.44
 9  COc1cc(-c2ccc(NCCN3CCCC3)c(C3CCN(c4ncnc5c4C(C)C(=O)N5)CC3)n2)c(F)cn1 (centres unmarked) [Compound 16]       8.72
10  COc1cncc(-c2ccc(NCCN(C)C)c(C3CCN(c4ncnc5c4C(C)C(=O)N5)CC3)n2)c1 (centres unmarked) [Compound 21]       8.40
11  CC(C)(C)NCCNc1cc(-c2cncc(F)c2)nc(C2CCN(c3ncnc4c3C(C)(C)C(=O)N4)CC2)c1 [Comparative Example B, reference compound]       6.18
12  CC(C)(C)NCCNc1ccc(-c2cncc(F)c2)nc1C1CCN(c2ncnc3c2C(C)(C)C(=O)N3)CC1 [Compound 1]       8.17
13  CC1C(=O)Nc2ncnc(N3CCC(c4cc(-c5cc(C(F)(F)F)nn5C)cnc4NCCN4CCCC4)CC3)c21 (centres unmarked) [Compound 27]       8.80

---

target: Rsk1 (Homo sapiens (Human))
Sequence (Q15418 whole entry): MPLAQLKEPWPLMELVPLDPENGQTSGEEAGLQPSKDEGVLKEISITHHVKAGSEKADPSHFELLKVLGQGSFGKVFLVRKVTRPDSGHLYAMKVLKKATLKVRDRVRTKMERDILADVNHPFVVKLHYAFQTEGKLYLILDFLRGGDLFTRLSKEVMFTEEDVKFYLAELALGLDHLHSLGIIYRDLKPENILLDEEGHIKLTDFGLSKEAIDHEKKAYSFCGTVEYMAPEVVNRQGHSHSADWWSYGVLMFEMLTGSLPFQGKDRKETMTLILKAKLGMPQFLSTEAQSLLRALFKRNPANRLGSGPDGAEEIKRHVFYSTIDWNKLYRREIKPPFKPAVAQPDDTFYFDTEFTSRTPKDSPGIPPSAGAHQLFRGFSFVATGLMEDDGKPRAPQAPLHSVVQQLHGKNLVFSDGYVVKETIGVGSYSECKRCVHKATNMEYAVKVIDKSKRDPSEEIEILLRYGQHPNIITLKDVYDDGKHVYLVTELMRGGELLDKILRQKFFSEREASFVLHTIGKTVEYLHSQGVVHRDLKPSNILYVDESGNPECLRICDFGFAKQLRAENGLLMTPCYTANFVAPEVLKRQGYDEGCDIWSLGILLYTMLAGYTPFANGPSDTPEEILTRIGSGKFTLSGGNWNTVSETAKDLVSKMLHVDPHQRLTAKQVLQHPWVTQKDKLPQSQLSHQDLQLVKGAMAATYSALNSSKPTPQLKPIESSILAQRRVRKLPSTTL
method: Inhibitory effects on Rsk1 kinase activity (QSS Assist FP assay kit)
Assay type: biochemical
runConditions: Rsk1, ATP 30 μM; read-out: Rsk inhibitory activity IC50
pIC50: −log10 of the molar value.
testReadout: pIC50

In [3]: df
Out[3]:
                                   molecule  testreadout  measvalue
0  CC1C(=O)Nc2ncnc(N3CCC(c4nc(-c5cc(C(F)(F)F)nn5C)ccc4NCCN4CCCC4)CC3)c21 (stereo not shown)        pIC50       9.05
1  CC(C)NCCNc1ccc(-c2cc(C(F)(F)F)nn2C)nc1C1CCN(c2ncnc3c2C(C)(C)C(=O)N3)CC1        pIC50       9.05
2  CN(C)CCNc1ccc(-c2nnc(C(F)F)s2)nc1C1CCN(c2ncnc3c2C(C)(C)C(=O)N3)CC1        pIC50       9.05
3  Cc1nc(C)c(-c2ccc(NCCNC(C)C)c(C3CCN(c4ncnc5c4C(C)(C)C(=O)N5)CC3)n2)s1        pIC50       9.00
4  CC(C)NCCNc1ccc(-c2cc(Cl)nn2C)nc1C1CCN(c2ncnc3c2C(C)(C)C(=O)N3)CC1        pIC50       9.15
5  CC(C)(C)NCCNc1ccc(-c2nnc(C3CC3)s2)nc1C1CCN(c2ncnc3c2C(C)(C)C(=O)N3)CC1        pIC50       9.22
6  CC1C(=O)Nc2ncnc(N3CCC(c4nc(-c5ccsc5)ccc4NCCN4CCCC4)CC3)c21 (stereo not shown)        pIC50       8.85
